System: Enterococcus faecalis
Assay: in vitro bacteriostatic activity, agar dilution MIC
Format: cell-based
Conditions: Enterococcus faecalis, Enterococcus faecalis 12-21; read-out: MIC
Counter-ions that a name gives are not always drawn.
The reader will find reported MIC values listed item by item below.
API: value field is a number in µg/mL; no unit string.

>  <compound>
CC1(C)S[C@@H]2[C@H](NC(=O)Cc3ccccc3)C(=O)N2[C@H]1C(=O)O [penicillin, Benzylpenicillin sodium]

>  <MIC / µg/mL>
2

$$$$
>  <compound>
C[C@H]1COc2c(N3CCN(C)CC3)c(F)cc3c(=O)c(C(=O)O)cn1c23 [levofloxacin, Levofloxacin hydrochloride]

>  <MIC / µg/mL>
4

$$$$

Let's switch to this compound now.
Identify MIC associated with the compound C[C@H]1CC[C@@]2(O)C(C)(C)[C@@H]3CC[C@@]2(C)[C@H]1C3 (stereo in doubt) 64

* * *

Tested on: Staphylococcus epidermidis MSSE
Assay: in vitro bacteriostatic activity, agar dilution MIC
Type: cell-based
Details: Staphylococcus epidermidis, Staphylococcus epidermidis MSSE 12-19; read-out: MIC
Where a name gives a salt, the structure may show the parent alone.
attribute.measured: MIC (µg/mL)
API: value field is a number in µg/mL; no unit string.

Please review the entries below; each comes with its answer.
>  <molecule>
CC[C@H]1OC(=O)[C@H](C)[C@@H](O[C@H]2C[C@@](C)(OC)[C@@H](O)[C@H](C)O2)[C@H](C)[C@@H](O[C@@H]2O[C@H](C)C[C@H](N(C)C)[C@H]2O)[C@](C)(O)C[C@@H](C)CN(C)[C@H](C)[C@@H](O)[C@]1(C)O

>  <attribute.measured>
MIC

>  <reported>
16

$$$$
>  <molecule>
C[C@H]1COc2c(N3CCN(C)CC3)c(F)cc3c(=O)c(C(=O)O)cn1c23 [levofloxacin, Levofloxacin hydrochloride]

>  <attribute.measured>
MIC

>  <reported>
0.5

$$$$
>  <molecule>
C[C@H]1CC[C@@]2(O)C(C)(C)[C@@H]3CC[C@@]2(C)[C@H]1C3 (stereo in doubt)

>  <attribute.measured>
MIC

>  <reported>
32

$$$$

Let's switch to this molecule now.
Identify MIC associated with the molecule CC1(C)S[C@@H]2[C@H](NC(=O)Cc3ccccc3)C(=O)N2[C@H]1C(=O)O [penicillin, Benzylpenicillin sodium] 0.06

* * *

Tested on: Enterococcus faecalis
Assay: in vitro bacteriostatic activity, agar dilution MIC
Type: cell-based
Conditions: Enterococcus faecalis, Enterococcus faecalis 12-12; read-out: MIC
Structures can show the parent of a compound that is named as a salt.
The reader will find reported MIC values listed item by item below.
API: value field is a number in µg/mL; no unit string.

Please review the entries below; each comes with its answer.
>  <compound>
CC1(C)S[C@@H]2[C@H](NC(=O)Cc3ccccc3)C(=O)N2[C@H]1C(=O)O [penicillin, Benzylpenicillin sodium]

>  <measurement.target>
Enterococcus faecalis

>  <u>
µg/mL

>  <reported>
1

$$$$
>  <compound>
CC[C@H]1OC(=O)[C@H](C)[C@@H](O[C@H]2C[C@@](C)(OC)[C@@H](O)[C@H](C)O2)[C@H](C)[C@@H](O[C@@H]2O[C@H](C)C[C@H](N(C)C)[C@H]2O)[C@](C)(O)C[C@@H](C)CN(C)[C@H](C)[C@@H](O)[C@]1(C)O [azithromycin, Azithromycin]

>  <measurement.target>
Enterococcus faecalis

>  <u>
µg/mL

>  <reported>
4

$$$$
>  <compound>
C[C@H]1COc2c(N3CCN(C)CC3)c(F)cc3c(=O)c(C(=O)O)cn1c23 [levofloxacin, Levofloxacin hydrochloride]

>  <measurement.target>
Enterococcus faecalis

>  <u>
µg/mL

>  <reported>
32

$$$$

Let's switch to this compound now.
Identify MIC associated with the compound C[C@H]1CC[C@@]2(O)C(C)(C)[C@@H]3CC[C@@]2(C)[C@H]1C3 (stereo in doubt) [PC] 32
